tested on: HCI-001 (organoid from a triple-negative breast cancer xenograft); assay: CTG-3D luminescence at 96 h relative to day-0 seeding control (ratio to day 0); higher = more growth / less cytotoxicity; PDxO 3D drug screen, 96 h, CTG-3D normalised to day-0 seeding control.; conditions: 625 fM; days in culture: 327
Provide the reported CTG-3D luminescence at 96 h of each item.
Output: the number by itself.

INPUT: Would you kindly share the measured CTG-3D luminescence at 96 h for Cc1cc(Nc2ncnc3ccc(NC4=NC(C)(C)CO4)cc23)ccc1Oc1ccn2ncnc2c1 ?
OUTPUT: 1.78

INPUT: I am curious: what CTG-3D luminescence at 96 h value has been reported for COc1cccc2c1C(=O)c1c(O)c3c(c(O)c1C2=O)C[C@@](O)(C(=O)CO)C[C@@H]3O[C@H]1C[C@H](N)[C@H](O)[C@H](C)O1 ?
OUTPUT: 1.5

INPUT: Sample C[C@]12CC[C@@H]3c4ccc(O)cc4C[C@@H](CCCCCCCCC[S+]([O-])CCCC(F)(F)C(F)(F)F)[C@H]3[C@@H]1CC[C@@H]2O (stereo partly drawn) — what was its CTG-3D luminescence at 96 h?
OUTPUT: 2.08
